Test system: HL-60
methodSummary: cells
assayConditions: Homo sapiens, HL-60, 24 h, read-out: IC50, Leukemia cells HL-60
endpointLabel: pIC50
The value called pIC50 is obtained by taking minus log10 of the concentration in mol/L.

Q: Quick check: pIC50 of `COc1cccc2c1C(=O)c1c(O)c3c(c(O)c1C2=O)C[C@@](O)(C(=O)CO)C[C@@H]3O[C@H]1C[C@H](N)[C@H](O)[C@H](C)O1` ?
Ans: 6.72
